targetOrTestSystem: human glucagon receptor (human) (UniProt P47871)
Sequence (P47871 26-477): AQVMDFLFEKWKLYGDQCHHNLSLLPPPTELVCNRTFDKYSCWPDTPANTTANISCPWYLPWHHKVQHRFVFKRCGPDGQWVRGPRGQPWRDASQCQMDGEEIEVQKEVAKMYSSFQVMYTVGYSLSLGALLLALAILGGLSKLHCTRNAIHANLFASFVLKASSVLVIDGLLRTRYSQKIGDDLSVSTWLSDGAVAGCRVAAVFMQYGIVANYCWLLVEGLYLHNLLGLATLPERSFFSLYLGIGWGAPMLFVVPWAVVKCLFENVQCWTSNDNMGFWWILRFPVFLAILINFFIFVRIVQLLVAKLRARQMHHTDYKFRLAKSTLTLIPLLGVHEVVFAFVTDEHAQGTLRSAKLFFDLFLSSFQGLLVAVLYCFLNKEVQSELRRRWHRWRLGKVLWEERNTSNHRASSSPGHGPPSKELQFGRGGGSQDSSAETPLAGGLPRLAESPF
test: cell-based or functional assay
Non-standard residues stand in square brackets, D forms with d. No end group written: not given here. αMePhe(2-F) = C[C@](N)(Cc1ccccc1F)C(=O)O; Aib = CC(C)(N)C(=O)O
Class boundaries, taken from values of cAMP Rel EC50, nM (1% HSA), are as follows: one (below 500 nM), two (500 nM to below 700 nM), three (700 nM or more)

Query block: Determine which band this binder sits in: YXQGTFTSDFSXXLDKKAQXAFIEWLLEGGTSSGAPPPSGE (synthetic construct; SITE 2: note = 2-Aminoisobutyric Acid; SITE 12: note = L-ornithine; SITE 13: note = alpha-methyl-leucine; SITE 17: note = Lysine is chemically modified through conjugation of the epsilon-amino group of the Lysine side chain with (2-[2-(2-Amino-ethoxy)-ethoxy]-acetyl)-(gamma-Glu)) [Example 175]
Result block: two

Query block: Class for Y[Aib]QGT[αMePhe(2-F)]TSDYSKLLDKIAQKAFIEYLIEGGPSSGAPPPEGE-NH2 (not fully specified (residue 20)) [Example 357] ?
Result block: three

Query block: # bin lookup: classify YXQGTXTSDYSILLDKKAQXAFIEYLEEGGPSSGAPPPE (synthetic construct; SITE 2: note = 2-Aminoisobutyric Acid; SITE 6: note = alpha-methyl-2-fluoro-L-phenylalanine; SITE 17: note = Lysine is chemically modified through conjugation of the epsilon-amino group of the Lysine side chain with (2-[2-(2-Amino-ethoxy)-ethoxy]-acetyl)-(gamma-Glu)-CO-(CH2) 16-) [Example 408] by its cAMP Rel EC50, nM (1% HSA)
Result block: one

Query block: Sort Y[Aib]QGT[αMePhe(2-F)]TSDYSILLDKQAAKEFIEYLIEGGPSSGEPPPSEG-NH2 (not fully specified (residue 20)) [Example 348] into one of the categories.
Result block: three

Query block: For YXQGTFTSDXSRXLDKKAQXAFIEYLIEXGESSGAPPPSGS (acylated; synthetic construct; SITE 2: note = 2-Aminoisobutyric Acid; SITE 10: note = 3-(4-Pyridyl)-L-alanine; SITE 13: note = alpha-methyl-leucine; SITE 17: note = Lysine is chemically modified through conjugation of the epsilon-amino group of the Lysine side chain with (2-[2-(2-Amino-ethoxy)-ethoxy]-acetyl)) [Example 224] , which cAMP Rel EC50, nM (1% HSA) bin applies?
Result block: one

Query block: Which class holds YXQGTXTSDXSIXLDXKAQXXFIEXLLEGGPSSXEPPPE (synthetic construct; SITE 2: note = 2-Aminoisobutyric Acid; SITE 6: note = alpha-methyl-2-fluoro-L-phenylalanine; SITE 10: note = 3-(4-Pyridyl)-L-alanine; SITE 13: note = alpha-methyl-leucine; SITE 16: note = L-ornithine; SITE 17: note = Lysine is chemically modified through conjugation of the epsil) [Example 373] ?
Result block: two

Query block: Tag the class for YXQGTFTSDXSQXLDXKAQXAFIEXLIEGGPSSGEPPPSGSEE (Aib, 4Pal, αMeL, Orn, Me4Pal, αMeY; lipidated Lys; C-terminal amide; synthetic construct; SITE 2: note = 2-Aminoisobutyric Acid; SITE 10: note = 3-(4-Pyridyl)-L-alanine; SITE 13: note = alpha-methyl-leucine; SITE 16: note = L-ornithine; SITE 17: note = Lysine is chemically modified through conjugation of the epsilon-amino group of the Lysine side chain with (gamma-Gl)) [Example 1027]
Result block: three

Query block: In plain terms, what class is YXQGTFTSDFSXXLDKKAQXAFIEWLLEGGTSSGAPPPSGS (synthetic construct; SITE 2: note = 2-Aminoisobutyric Acid; SITE 12: note = L-ornithine; SITE 13: note = alpha-methyl-leucine; SITE 17: note = Lysine is chemically modified through conjugation of the epsilon-amino group of the Lysine side chain with (2-[2-(2-Amino-ethoxy)-ethoxy]-acetyl)-(gamma-Glu)) [Example 176] ?
Result block: one

Query block: Which class holds YXQGTFTSDFSXXLDXKAQXAFIEYLLEGGPSSGAPPPGGSEE (Aib, Orn, alpha-methyl-Leu, lipidated Lys, C-terminal amide; synthetic construct; SITE 2: note = 2-Aminoisobutyric Acid; SITE 12: note = L-ornithine; SITE 13: note = alpha-methyl-leucine; SITE 16: note = L-ornithine; SITE 17: note = Lysine is chemically modified through conjugation of the epsilon-amino group of the Lysine side chain with (gamma-Glu)2-CO-(CH2)) [Example 1048] ?
Result block: three

Query block: Which bin, given its cAMP Rel EC50, nM (1% HSA), does YXQGTXTSDXXIXLDXKYQXEFIEXLVEGGPSSGAPPPSGS (synthetic construct; SITE 2: note = 2-Aminoisobutyric Acid; SITE 6: note = alpha-methyl-2-fluoro-L-phenylalanine; SITE 10: note = 3-(4-Pyridyl)-L-alanine; SITE 11: note = alpha-methyl-L-serine; SITE 13: note = alpha-methyl-leucine; SITE 16: note = L-ornithine; SITE 17: note = Lysine is chemically mo) [Example 767] occupy?
Result block: one

Query block: Form field 'band' for YXQGTFTSDFSXXLDKKAQXAFIEYLLEGGESSGAPPPGGS (synthetic construct; SITE 2: note = 2-Aminoisobutyric Acid; SITE 12: note = L-ornithine; SITE 13: note = alpha-methyl-leucine; SITE 17: note = Lysine is chemically modified through conjugation of the epsilon-amino group of the Lysine side chain with (2-[2-(2-Amino-ethoxy)-ethoxy]-acetyl)-(gamma-Glu)) [Example 161]
Result block: three

Query block: Quick check: band for YXQGTFTSDXSXXLDXKAQXAFIEYLIAGGPSSGEPPPSGE (Lys acylated (γ-Glu)2-C18 diacid; non-natural residues; C-terminal amide; synthetic construct; SITE 2: note = 2-Aminoisobutyric Acid; SITE 10: note = 3-(4-Pyridyl)-L-alanine; SITE 12: note = L-ornithine; SITE 13: note = alpha-methyl-leucine; SITE 16: note = L-ornithine; SITE 17: note = Lysine is chemically modified through conjugation of the epsilon-amino group of the Lys) [Example 983]
Result block: two

Query block: Bin this entry: YXQGTXTSDYSILLDKKAQXNFIEYLEEGGPSSGAPPPS (synthetic construct; SITE 2: note = 2-Aminoisobutyric Acid; SITE 6: note = alpha-methyl-2-fluoro-L-phenylalanine; SITE 17: note = Lysine is chemically modified through conjugation of the epsilon-amino group of the Lysine side chain with (gamma-Glu)2-CO-(CH2)16-CO2H; SITE 20: note = 2-Aminoisobutyric) [Example 416]
Result block: one

Query block: Would you mind sorting YXQGTFTSDFSXXLDKKAQXAFIEYLLEAGPSSXAPPPSGT (acylated lipid side chain; synthetic construct; SITE 2: note = 2-Aminoisobutyric Acid; SITE 12: note = L-ornithine; SITE 13: note = alpha-methyl-leucine; SITE 17: note = Lysine is chemically modified through conjugation of the epsilon-amino group of the Lysine side chain with (2-[2-(2-Amino-ethoxy)-ethoxy]-acetyl)-(gamma-Glu)) [Example 214] into the appropriate category?
Result block: one

Query block: Kindly identify the class of YXQGTFTSDXSQXLDXKAQXAFIEYLIEAGPSSGAPPPSGS (not fully specified; Aib, 4Pal, αMeL, Orn, Me4Pal, D-Ala; acylated Lys; amide; synthetic construct; SITE 2: note = 2-Aminoisobutyric Acid; SITE 10: note = 3-(4-Pyridyl)-L-alanine; SITE 13: note = alpha-methyl-leucine; SITE 16: note = L-ornithine; SITE 17: note = Lysine is chemically modified through conjugation of the epsilon-amino group of the Lysine side chain with (gamma-Gl)) [Example 1017] .
Result block: two
